systemUnderTest: T1, full-length human CTLA4 expressed on cells (human, UniProt P16410 36-223)
T1 construct: whole, on cells; also called HEK293F/hCTLA-4 cells; HEK293F/hCTLA4 cells
T1 sequence (looked up): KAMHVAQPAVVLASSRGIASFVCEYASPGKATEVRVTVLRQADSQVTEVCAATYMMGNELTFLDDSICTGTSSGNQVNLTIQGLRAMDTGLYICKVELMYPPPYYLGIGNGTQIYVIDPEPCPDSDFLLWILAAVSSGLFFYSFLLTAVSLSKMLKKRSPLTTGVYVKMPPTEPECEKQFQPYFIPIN
testProtocol: flow cytometry blocking: HEK293F cells with human CTLA4, 100 nM antibody, then 100 nM CD80-Fc-Bio (blocked ligand); PBSA panel: Mean 157692, 26.3%
% of cells in upper right quadrant (CD80-positive) in the presence of the antibody overview

Consider the reported % of cells in upper right quadrant (CD80-positive) in the presence of the antibody for these binders:
{"binder": "TY21588 (antibody, V domains shown, human IgG1 (hIgG1) from Fab hit B15732) VH: EVQLVESGGGLVQPGGSLRLSCAASGYSISSGYHWDWIRQAPGKGLEWVSGISGYGGSTYYADSVKGRFTISRDNSKNTLYLQLNSLRAEDTAVYYCARHSYYGSGNFDYWGQGTLVTVSS VL: DIQLTQSPSSLSASVGDRVTITCRASESVDFFGKSFLHWYQQKPGKAPKLLIYDASNLETGVPSRFSGSGSGTDFTLTISSLQPEDFATYYCQQSYSWPPTFGQGTKVEIKR", "obsValue": "19.4%"}
{"binder": "TY21585 (antibody, V domains shown, human IgG1 (hIgG1) from Fab hit B15709) VH: EVQLVESGGGLVQPGGSLRLSCAASGFTFSDYAIHWVRQAPGKGLEWIGIISPSSGSTNYAQKFQGRVTISRDNSKNTLYLQLNSLRAEDTAVYYCARDIHSGSSGYYYGFDVWGQGTLVTVSS VL: DIQLTQSPSSLSASVGDRVTITCRASESVDFFGISFLAWYQQKPGKAPKLLIYDASNRATGIPSRFSGSGSGTDFTLTISSLQPEDFATYYCQHYTSSPPVYTFGQGTKVEIK", "obsValue": "22.5%"}
{"binder": "TY21589 (antibody, V domains shown, human IgG1 (hIgG1) from Fab hit B15740) VH: EVQLVESGGGLVQPGGSLRLSCAASGFTFSDYWIHWVRQAPGKGLEWIGWISPSGGGTKYAQKFQGRVTISRDNSKNTLYLQLNSLRAEDTAVYYCARGAYEFDYWGQGTLVTVSS VL: DIQLTQSPSSLSASVGDRVTITCRASQSVSSRFLAWYQQKPGKAPKLLIYDASNRATGIPSRFSGSGSGTDFTLTISSLQPEDFATYYCQQSYPTPLTFGQGTKVEIK", "obsValue": "27.5%"}

Moving on to another binder below.
Value lookup for % of cells in upper right quadrant (CD80-positive) in the presence of the antibody; key = TY21587 (antibody, V domains shown, human IgG1 (hIgG1) from Fab hit B15722) VH: EVQLVESGGGLVQPGGSLRLSCAASGFTFSDYGIHWVRQAPGKGLEWIGEIYHSGSTYYSPSLKSRVTISRDNSKNTLYLQLNSLRAEDTAVYYCARDVAPGSSGYYDGFDFWGQGTLVTVSS VL: DIQLTQSPSSLSASVGDRVTITCRASQGIGSSLAWYQQKPGKAPKLLIYDASNRATGIPSRFSGSGSGTDFTLTISSLQPEDFATYYCQQYDQWPPWTFGQGTKVEIK 25.8%
